ASSAY METRIC: intrinsic clearance, rat liver microsomes (mL/min/kg)

Here is how some molecules turned out for intrinsic clearance, rat liver microsomes.
Ask: Find the recorded intrinsic clearance, rat liver microsomes belonging to "CCCn1ncc(CN2CCC(c3ncc[nH]3)CC2)c1C" and report it.
Result: 498

Ask: Next up: "Cc1nc(-c2ccccc2)c(C(=O)Nc2cc(Cl)cc(Cl)c2)s1"
Result: 230

Ask: Next up: "c1cncc(-c2nnc3n2[C@H]2CN(Cc4cccs4)C[C@H]2CC3)c1"
Result: 343

I = Cc1c[nH]c(CNCc2ccccc2CC(C)C)n1
II = COc1ccc(S(=O)(=O)CCC(=O)Nc2ccc3c(c2)N(C)C(=O)CO3)cc1
III = Cc1cccc(NC(=O)CSc2nncs2)c1
Ask: Arrange the 3 entries by intrinsic clearance, rat liver microsomes so the values rise. Dear reader, please state the labels in the requested order.
Result: II, III, I
(II: 109 mL/min/kg, III: 278 mL/min/kg, I: 2700 mL/min/kg)

====

ASSAY METRIC: intrinsic clearance, rat liver microsomes (mL/min/kg)

Ask: Find the recorded intrinsic clearance, rat liver microsomes belonging to "Cc1cc(C(=O)N(C)c2nc3ccccc3s2)cc(O)n1" and report it.
Result: 16.1

Ask: Next up: "N#CCN1CCC(CNC(=O)c2c(F)ccc(F)c2F)CC1"
Result: 15.7

====

ASSAY METRIC: MDR1-MDCK efflux ratio

Here is how some compounds turned out for MDR1-MDCK efflux ratio.
Ask: Find the recorded MDR1-MDCK efflux ratio belonging to CCCn1ncc2ccc(C3CCCN(CC(=O)N4CCCC4)C3)nc21 (centres undefined) and report it.
Result: 6.7

Ask: Next up: "N#Cc1ccccc1Cn1nnc(-c2ccccc2)n1"
Result: 0.448

Ask: Next up: "CCCN(CCc1cccs1)[C@H]1CCc2c(O)cccc2C1"
Result: 0.512

Ask: Next up: "Cc1ccc(-c2ccnc(O)c2C#N)cc1"
Result: 0.966

Ask: Next up: "CCCCNC(=O)c1cccc2ncccc12"
Result: 0.631

Ask: Next up: "COCCN1CCOc2nc3c(C)cccc3cc2C1"
Result: 0.564

Ask: Next up: "COc1ccnc(N2CC(O)(C3CC3)C2)n1"
Result: 0.711

Ask: Next up: "N#CCn1ncnc1-c1cccc(C#N)c1"
Result: 0.748

P = CCn1ncc(-c2cc(C(F)F)nc(NCCCOC)n2)c1C
Q = COc1ccc(C)nc1-c1ccc(OC)c(OC)c1OC
R = NC1CC(NC(=O)c2ccc(-c3cn[nH]c3)cn2)C12CCC2 (centres undefined)
S = CNC(=O)c1ccc2c(c1)CCO[C@H]2CCN1CCN(c2ccc(C(N)=O)cc2)CC1
T = Cc1ccccc1CCNC(=O)N(Cc1cccnc1)C1CCN(C)CC1
Ask: Arrange the 5 entries by MDR1-MDCK efflux ratio so the values rise. Dear reader, please state the labels in the requested order.
Result: P, Q, R, S, T
(P: 0.525, Q: 0.981, R: 8.96, S: 21.5, T: 55.7)

I = O=c1n(CCc2ccncc2)nnn1-c1ccccc1
II = Cc1nc2n(c1CN1CCN(c3ncccn3)CC1)CCCC2
Ask: Smaller MDR1-MDCK efflux ratio value, I vs II ? # respond with the chosen item's label
Result: I
(I: 0.571, II: 7.45)
